Reported IC50 values for a set of molecules
target-entity: IDH1 wt/IDH1 R132H heterodimer (Homo sapiens (Human), UniProt O75874, R132H)
Sequence (O75874 whole entry R132H): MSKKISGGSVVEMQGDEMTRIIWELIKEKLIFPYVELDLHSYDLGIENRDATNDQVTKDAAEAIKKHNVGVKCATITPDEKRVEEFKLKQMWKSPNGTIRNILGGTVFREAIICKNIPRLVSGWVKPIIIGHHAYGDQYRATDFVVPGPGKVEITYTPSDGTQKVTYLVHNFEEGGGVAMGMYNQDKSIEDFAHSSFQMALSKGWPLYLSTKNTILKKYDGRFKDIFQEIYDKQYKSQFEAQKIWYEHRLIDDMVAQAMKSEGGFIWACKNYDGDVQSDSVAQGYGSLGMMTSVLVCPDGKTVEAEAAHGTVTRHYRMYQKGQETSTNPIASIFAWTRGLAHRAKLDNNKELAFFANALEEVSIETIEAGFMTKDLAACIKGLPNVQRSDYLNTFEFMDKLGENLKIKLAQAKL
Sequence (O75874 whole entry, stated change not applied): as the sequence (O75874 whole entry R132H) above, with H132R counted along it
procedure-text: In vitro assay for IDH1m R132H inhibitors, IDH1 wt/IDH1 R132H heterodimer, NADPH depletion (diaphorase/resazurin)
Assay type: biochemical
assay-context: IDH1 wt/R132H heterodimer, NADPH/NADP, not saturated; read-out: IDH1 wt/R132H NADPH/NADP IC50 not saturated
metric: IC50

[[record]]
molecule = "Fc1cc(F)cc(Nc2nc(NC3CCC(F)(F)C3)nc(-c3cncc(Cl)n3)n2)c1 (stereo not shown) [Compound 109]"
target_entity = "IDH1 wt/IDH1 R132H heterodimer (Homo sapiens (Human), UniProt O75874, R132H)"
measured_result = "< 50 nM"

[[record]]
molecule = "N#CC1(c2cc(Nc3nc(NC4CCC(F)(F)C4)nc(-c4nccc(C(F)(F)F)n4)n3)ccn2)CC1 (stereo not shown) [Compound 261]"
target_entity = "IDH1 wt/IDH1 R132H heterodimer (Homo sapiens (Human), UniProt O75874, R132H)"
measured_result = "100 to 1000 nM"

[[record]]
molecule = "CC(Nc1nc(Nc2ccnc(-c3ccccc3)c2)nc(-c2cccc(C(F)(F)F)n2)n1)C(F)(F)F (stereo not shown) [Compound 217]"
target_entity = "IDH1 wt/IDH1 R132H heterodimer (Homo sapiens (Human), UniProt O75874, R132H)"
measured_result = "< 50 nM"

[[record]]
molecule = "Fc1ccc([C@H]2C[C@@H](Nc3nc(NC4CCC(F)(F)C4)nc(-c4cccc(C(F)(F)F)n4)n3)C2)cc1 (stereo partly shown) [Compound 199]"
target_entity = "IDH1 wt/IDH1 R132H heterodimer (Homo sapiens (Human), UniProt O75874, R132H)"
measured_result = "< 50 nM"


---

Examples of compounds with documented IC50 follow.
target-entity: IDH1-R132 homodimer enzyme (R132H) (Homo sapiens (Human), UniProt O75874, R132H)
Sequence (O75874 whole entry R132H): as the sequence (O75874 whole entry R132H) above
procedure-text: In vitro assay IDH1-R132H homodimer, NADPH depletion assay
metric: IC50

[[record]]
compound = "FC1(F)CCC(Nc2nc(NC3CCC(F)(F)C3)nc(-c3cccc(C(F)(F)F)n3)n2)C1 (centres unmarked)"
metric = "IC50"
measured_result = "< 50 nM"

[[record]]
compound = "C[C@@H](Nc1nc(NCC(N)=O)nc(-c2cccc(C(F)(F)F)n2)n1)C1CC1"
metric = "IC50"
measured_result = "> 1000 nM"

[[record]]
compound = "C[C@H](Nc1nc(N[C@H](C)c2ccccc2)nc(-c2cccc(C(F)(F)F)n2)n1)c1ccccc1"
metric = "IC50"
measured_result = "100 to 1000 nM"

[[record]]
compound = "FC(F)(F)c1cccc(-c2nc(NCC3CC3)cc(NCC3CC3)n2)n1"
metric = "IC50"
measured_result = "> 1000 nM"

[[record]]
compound = "C[C@H](Nc1nc(N[C@@H](C)C2CC2)nc(-c2cccc(C(F)(F)F)n2)n1)C1CC1"
metric = "IC50"
measured_result = "< 50 nM"

[[record]]
compound = "CC(C)Nc1nc(NC(C)C)nc(-c2cccc(C(F)(F)F)n2)n1"
metric = "IC50"
measured_result = "100 to 1000 nM"

[[record]]
compound = "C[C@@H](Nc1cc(NC(C)(C)C)nc(-c2cccc(C(F)(F)F)n2)n1)C1CC1"
metric = "IC50"
measured_result = "100 to 1000 nM"

[[record]]
compound = "C[C@@H](Nc1nc(N[C@H](C)C2CC2)nc(-c2cccc(C(F)(F)F)n2)n1)C(=O)O"
metric = "IC50"
measured_result = "> 1000 nM"

[[record]]
compound = "C[C@@H](Nc1nc(N[C@H](C)C2CC2)nc(-c2cccc(O)c2)n1)C1CC1"
metric = "IC50"
measured_result = "100 to 1000 nM"

[[record]]
compound = "CC(C)[C@@H](C)Nc1nc(N[C@H](C)C(C)C)nc(-c2cccc(C(F)(F)F)n2)n1"
metric = "IC50"
measured_result = "< 50 nM"

[[record]]
compound = "CC(C)(C)Nc1nc(NC(C)(C)C)nc(-c2cccc(C(F)(F)F)n2)n1"
metric = "IC50"
measured_result = "50 to 100 nM"

[[record]]
compound = "CC(C)Nc1nc(NC(C)(C)C#N)nc(-c2cc(O)ccc2F)n1"
metric = "IC50"
measured_result = "> 1000 nM"

[[record]]
compound = "FC(F)(F)c1cccc(-c2nc(NCC3CCC3)nc(NCC3CCC3)n2)n1"
metric = "IC50"
measured_result = "100 to 1000 nM"

[[record]]
compound = "CCN(CC)c1nc(N[C@H](C)C2CC2)nc(-c2cccc(Cl)n2)n1"
metric = "IC50"
measured_result = "> 1000 nM"

[[record]]
compound = "CC(Nc1nc(N[C@H](C)C2CC2)nc(-c2cccc(C(F)(F)F)n2)n1)c1ccccc1 (single isomer, unassigned)"
metric = "IC50"
measured_result = "50 to 100 nM"

[[record]]
compound = "CC(Nc1nc(N[C@H](C)C2CC2)nc(-c2cccc(C(F)(F)F)n2)n1)c1cccc(C(F)(F)F)c1 (some centres unmarked)"
metric = "IC50"
measured_result = "50 to 100 nM"

[[record]]
compound = "C[C@@H](Nc1nc(NC(C)(C)C#N)nc(-c2cccc(C(F)(F)F)n2)n1)C1CC1"
metric = "IC50"
measured_result = "50 to 100 nM"


---

target-entity: IDH1-R132H homodimer enzyme (Homo sapiens (Human), UniProt O75874, R132H)
Sequence (O75874 whole entry R132H): as above
procedure-text: In vitro assay IDH1-R132H homodimer, NADPH depletion assay with NADPH/NADP preincubation
assay-context: 5 μM NADPH and 37.5 μM NADP
metric: IC50

[[record]]
compound = "FC1(F)CC(Nc2nc(Nc3ccnc(C(F)(F)F)c3)nc(-n3ccc(C(F)(F)F)n3)n2)C1"
target_entity = "IDH1-R132H homodimer enzyme (Homo sapiens (Human), UniProt O75874, R132H)"
measured_result = "100 to 1000 nM"

[[record]]
compound = "C[C@@H](Nc1nc(NC(C2CC2)C2CC2)nc(-c2cccc(C(F)(F)F)n2)n1)C1CC1"
target_entity = "IDH1-R132H homodimer enzyme (Homo sapiens (Human), UniProt O75874, R132H)"
measured_result = "50 to 100 nM"

[[record]]
compound = "Fc1ccc(F)c(-c2nc(NC3CCC(F)(F)CC3)nc(NC3CCC(F)(F)CC3)n2)n1"
target_entity = "IDH1-R132H homodimer enzyme (Homo sapiens (Human), UniProt O75874, R132H)"
measured_result = "> 1000 nM"

[[record]]
compound = "FC1(F)CCC(Nc2nc(Nc3ccnc(-c4ccccc4)c3)nc(-c3cccc(C(F)(F)F)n3)n2)C1 (stereo not shown)"
target_entity = "IDH1-R132H homodimer enzyme (Homo sapiens (Human), UniProt O75874, R132H)"
measured_result = "100 to 1000 nM"


---

target-entity: IDH1-R132H homodimer enzyme (Homo sapiens (Human), UniProt O75874, R132H)
procedure-text: In vitro assay IDH1-R132H homodimer, NADPH depletion assay with NADPH/NADP preincubation
assay-context: 5 μM NADPH and 37.5 μM NADP
pIC50: −log10 of the molar value.
Each record here notes measured pIC50.
metric: pIC50

[[record]]
compound = "FC1(F)CCC(Nc2nc(NC3CCC(F)(F)CC3)nc(-c3cncc(Cl)n3)n2)CC1 [Compound 147]"
metric = "pIC50"
measured_result = "7.00 to 7.30"

[[record]]
compound = "N#CC1(c2cc(Nc3nc(NC4CC(F)(F)C4)nc(-c4cccc(C(F)(F)F)n4)n3)ccn2)CC1 [Compound 168]"
metric = "pIC50"
measured_result = "> 7.30"

[[record]]
compound = "N#CC1(c2cc(Nc3nc(NC4CC5(C4)CC(F)(F)C5)nc(-c4cccc(C(F)(F)F)n4)n3)ccn2)CC1 [Compound 229]"
metric = "pIC50"
measured_result = "6.00 to 7.00"

[[record]]
compound = "CC(F)(F)c1nc(-c2nc(NC3CCC(F)(F)C3)nc(NC3CCC(F)(F)C3)n2)cs1 (stereo not shown) [Compound 155]"
metric = "pIC50"
measured_result = "> 7.30"


---

target-entity: IDH1 wt/IDH1 R132H heterodimer (Homo sapiens (Human), UniProt O75874, R132H)
procedure-text: In vitro assay for IDH1m R132H inhibitors, IDH1 wt/IDH1 R132H heterodimer, NADPH depletion (diaphorase/resazurin)
Format: biochemical
assay-context: IDH1 wt/R132H heterodimer, NADPH/NADP, not saturated; read-out: IDH1 wt/R132H NADPH/NADP IC50 not saturated
Entries annotated with measured IC50
metric: IC50

[[record]]
compound = "N#CC1(c2cc(Nc3nc(NC4CC5(C4)CC(F)(F)C5)nc(-c4cccc(C(F)(F)F)n4)n3)ccn2)CC1 [Compound 229]"
measured_result = "< 50 nM"

[[record]]
compound = "N#Cc1cc(Nc2nc(NC3CCC(F)(F)C3)nc(-n3ccc(C(F)(F)F)n3)n2)ccn1 (stereo not shown) [Compound 179]"
measured_result = "< 50 nM"

[[record]]
compound = "C[C@@H](Nc1nc(N[C@H](C)C2CC2)nc(-c2cccc(C#N)c2)n1)C1CC1 [Compound 320]"
measured_result = "> 1000 nM"

[[record]]
compound = "FC1(F)CCC(Nc2nc(NC3CCC(F)(F)C3)nc(-c3nc(C(F)(F)F)cs3)n2)C1 (stereo not shown) [Compound 148]"
measured_result = "< 50 nM"

